These data points were gathered from paper PMC10397247.

Biological target: T1, 4H380-AA
T1 chain: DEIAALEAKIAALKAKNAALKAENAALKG
Assay: two-hybrid library CCmax;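 note: natural log of median RNA to DNA barcode read ratio; higher means stronger binding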
Details: mean of both orientations
assayReadout: interaction score

Recorded interaction score, per entry:
DKIAALKAENAALEAEIAALKAENAALEG [4H2699-AA]
-1.08
DKIAALKAEIAALEAENAALEAENAALKG [4H2580-AA]
1.77
DKIAALKAKNAALKAKIAALKAEIAALEG [4H3049-AA]
-1.68

[a] DKNAALEAKIAALKAENAALEAKIAALKG [4H3414-AA]
[b] DEIAALEAENAALEAEIAALEAEIAALKG [4H130-AA]
[c] DKIAALKAENAALKAENAALEAKIAALKG [4H2774-AA]
[d] DENAALEAEIAALEAEIAALKAKNAALKG [4H1040-AA]
[e] DKNAALKAEIAALEAEIAALKAENAALEG [4H3595-AA]
Query :: Sort (5 binders) by interaction score: min first. Provide your answer as the labels ordered per the instruction.
Result :: c, a, b, e, d

[a] DKIAALKAKNAALEAEIAALEAENAALEG [4H2947-AA]
[b] DEIAALEAKIAALKAEIAALEAENAALKG [4H324-AA]
Query :: Determine, for a and b , which has the greater value of interaction score. // output: label of the selected item
Result :: b
(b: 0.833, a: -1.17)

[P] DKIAALKAENAALKAEIAALEAKNAALKG [4H2760-AA]
[Q] DENAALKAKIAALKAENAALEAKIAALKG [4H1878-AA]
Query :: Compare P and Q by numeric interaction score and name the larger one. Give the chosen item's label as your response.
Result :: Q
(Q: -0.854, P: -1.48)
